Test: Pro-Fragrant Hydrolysis Test (hydrolysis half-life t-1/2 by UV/Vis)
Format: physicochemical
Details: pH 0; 90/10 dioxane/water, 30° C.
Procedure: Hydrolysis half-life is the measurement used to determine the ease with which the pro-fragrance compound undergoes acid hydrolysis and thereby releases its fragrance component(s) upon exposure to acid conditions. […] Hydrolysis half-life is determined by UV/V is spectroscopy in a 90/10 dioxane/water system at 30° C. by following the appearance of the carbonyl absorbance. […] Reaction half-lifes are determined using conventional procedures. […]
metric.name: t1/2 (hydrolysis half-life)

CC(C)=CCCC(C)=CC(OC/C=C(\C)CCC=C(C)C)OC/C=C(\C)CCC=C(C)C: less than one
CCCCCCCCCC(OC/C=C(\C)CCC=C(C)C)OC/C=C(\C)CCC=C(C)C: 44 min
CCCCCCCCCCOC(C)(CCc1ccccc1)OCCCCCCCCCC: less than one
